target-entity: human NaV subtype, like NaV 1.7 (Homo sapiens, UniProt Q15858)
Sequence (Q15858 whole entry): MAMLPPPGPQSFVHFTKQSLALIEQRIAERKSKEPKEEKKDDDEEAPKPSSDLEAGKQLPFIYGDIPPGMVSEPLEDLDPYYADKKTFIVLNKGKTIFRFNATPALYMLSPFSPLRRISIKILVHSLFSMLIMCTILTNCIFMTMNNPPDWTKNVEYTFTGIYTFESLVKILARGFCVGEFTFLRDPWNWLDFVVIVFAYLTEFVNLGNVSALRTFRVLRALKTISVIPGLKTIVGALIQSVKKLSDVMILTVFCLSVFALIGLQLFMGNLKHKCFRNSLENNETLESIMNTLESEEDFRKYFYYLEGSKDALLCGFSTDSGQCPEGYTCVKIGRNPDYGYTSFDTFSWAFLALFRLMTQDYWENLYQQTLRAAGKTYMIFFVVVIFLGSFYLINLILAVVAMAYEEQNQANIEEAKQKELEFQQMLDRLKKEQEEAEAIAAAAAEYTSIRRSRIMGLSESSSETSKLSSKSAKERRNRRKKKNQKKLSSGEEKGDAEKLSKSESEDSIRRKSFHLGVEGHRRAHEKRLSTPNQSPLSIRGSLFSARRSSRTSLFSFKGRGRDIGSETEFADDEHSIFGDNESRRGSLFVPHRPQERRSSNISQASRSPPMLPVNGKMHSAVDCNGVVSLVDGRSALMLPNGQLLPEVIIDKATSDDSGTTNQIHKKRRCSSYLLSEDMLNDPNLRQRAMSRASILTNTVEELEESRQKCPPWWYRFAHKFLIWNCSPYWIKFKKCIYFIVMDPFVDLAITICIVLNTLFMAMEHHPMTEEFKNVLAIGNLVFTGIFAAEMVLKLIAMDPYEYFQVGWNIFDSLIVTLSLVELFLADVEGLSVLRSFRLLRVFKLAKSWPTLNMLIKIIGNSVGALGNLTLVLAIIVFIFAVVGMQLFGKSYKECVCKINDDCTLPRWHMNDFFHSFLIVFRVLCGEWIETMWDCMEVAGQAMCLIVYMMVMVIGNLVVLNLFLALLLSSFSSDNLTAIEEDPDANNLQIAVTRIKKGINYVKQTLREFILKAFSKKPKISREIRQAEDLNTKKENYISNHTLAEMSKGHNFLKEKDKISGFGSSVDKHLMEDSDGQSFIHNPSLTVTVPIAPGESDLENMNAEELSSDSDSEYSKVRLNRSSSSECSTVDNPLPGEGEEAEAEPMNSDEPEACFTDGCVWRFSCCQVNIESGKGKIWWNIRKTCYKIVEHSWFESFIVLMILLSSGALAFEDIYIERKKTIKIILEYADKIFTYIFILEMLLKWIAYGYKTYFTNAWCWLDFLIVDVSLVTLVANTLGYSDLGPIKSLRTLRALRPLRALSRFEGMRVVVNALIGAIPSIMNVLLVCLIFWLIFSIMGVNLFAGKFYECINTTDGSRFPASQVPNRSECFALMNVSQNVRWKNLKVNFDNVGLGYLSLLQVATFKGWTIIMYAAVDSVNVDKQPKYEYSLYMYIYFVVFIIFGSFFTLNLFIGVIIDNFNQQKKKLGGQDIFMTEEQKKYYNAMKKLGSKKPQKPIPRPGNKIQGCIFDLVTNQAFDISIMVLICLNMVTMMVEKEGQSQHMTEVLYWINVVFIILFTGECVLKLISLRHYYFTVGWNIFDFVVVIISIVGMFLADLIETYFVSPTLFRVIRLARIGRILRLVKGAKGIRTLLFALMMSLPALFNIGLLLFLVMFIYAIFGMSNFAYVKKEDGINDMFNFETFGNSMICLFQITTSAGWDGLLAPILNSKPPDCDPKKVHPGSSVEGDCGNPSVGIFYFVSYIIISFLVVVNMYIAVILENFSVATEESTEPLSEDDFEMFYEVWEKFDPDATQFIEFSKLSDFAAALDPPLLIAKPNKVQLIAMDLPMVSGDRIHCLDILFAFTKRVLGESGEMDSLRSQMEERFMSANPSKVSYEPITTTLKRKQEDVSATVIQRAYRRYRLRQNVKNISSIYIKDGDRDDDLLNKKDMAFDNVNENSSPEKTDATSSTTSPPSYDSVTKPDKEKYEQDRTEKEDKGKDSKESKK
assay-summary: E-VIPR optical membrane potential assay with electrical stimulation
setup-conditions: one or more sodium channels; assay and NaV subtype not specified for Table 3; read-out: IC50 Binned Activity Data
observable: IC50

Quick one: give me IC50 for each item below, same order please.
1. CCOC1CC(c2ccccc2)OC2(CCN(C(=O)c3ccc(N4CCCC4)nc3)CC2)C1 (centres unmarked)
2. CCOC1CC(c2cccnc2)OC2(CCN(C(=O)c3ccc(OC(C)C)c(C)n3)CC2)C1 (centres unmarked)
3. CCOC1CC(c2ccccc2)OC2(CCN(C(=O)c3cccnc3NC(C)C)CC2)C1 (centres unmarked)
4. CCOC1CC(CC)OC2(CCN(C(=O)c3ccc(OC(C)C)c(C)c3)CC2)C1 (centres unmarked)
5. CCOC1CC(c2ccccc2)OC2(CCN(C(=O)c3cccnc3N3CCCCC3)CC2)C1 (centres unmarked)

1. 2000 to 5000 nM
2. 2000 to 5000 nM
3. ≤ 2000 nM
4. 2000 to 5000 nM
5. ≤ 2000 nM

Quick one: give me IC50 for each item below, same order please.
1. CCOC1CC(c2ccccc2)OC2(CCN(C(=O)c3ccc(OC)c(OC(F)F)c3)CC2)C1 (centres unmarked)
2. CCOC1CC(c2ccccc2)OC2(CCN(C(=O)c3ccc(O[C@@H](C)CC)c(OC)c3)CC2)C1 (some centres unmarked)

1. ≤ 2000 nM
2. ≤ 2000 nM

----------
target-entity: human NaV subtype, like NaV 1.7 (Homo sapiens, UniProt Q15858)
assay-summary: E-VIPR optical membrane potential assay with electrical stimulation
setup-conditions: one or more sodium channels; assay and NaV subtype not specified for Table 3; read-out: IC50 Binned Activity Data
pIC50: −log10 of the molar value.
observable: pIC50

Field: example entries. Status: answers known.
CCOC1CC(c2ccccc2)OC2(CCN(C(=O)c3cccc(C)n3)CC2)C1 (centres unmarked) [Compound 122] | < 5.30
CCOC1CC(c2cccnc2)OC2(CCN(C(=O)c3ccc(OCCC(C)C)c(OC)c3)CC2)C1 (centres unmarked) [Compound 39] | ≥ 5.70
CCOC1CC(c2ccccc2)OC2(CCN(C(=O)c3c[nH]c4ncccc34)CC2)C1 (centres unmarked) [Compound 89] | ≥ 5.70
CCOc1ncc(Cl)cc1C(=O)N1CCC2(CC1)CC(OCC)CC(c1ccccc1)O2 (centres unmarked) [Compound 68] | 5.30 to 5.70
CCCOC1CC(c2cncs2)OC2(CCN(C(=O)c3ccc(OC(C)C)c(C)c3)CC2)C1 (centres unmarked) [Compound 8] | ≥ 5.70
CCOC1CC(c2cccnc2)OC2(CCN(C(=O)c3ccc(C(C)(C)C)c(OC)c3)CC2)C1 (centres unmarked) [Compound 37] | ≥ 5.70

Quick one: give me pIC50 for each item below, same order please.
1. CCOC1CC(c2ccccc2)OC2(CCN(C(=O)c3cc(C)c(OC(C)C)c(C)c3)CC2)C1 (centres unmarked) [Compound 29]
2. CCOC1CC(c2ccccc2)OC2(CCN(C(=O)c3ccc(OC(F)F)c(OC)c3)CC2)C1 (centres unmarked) [Compound 135]

≥ 5.70
≥ 5.70

----------
target-entity: UniProt Q15858
assay-summary: E-VIPR optical membrane potential assay with electrical stimulation
setup-conditions: one or more sodium channels; assay and NaV subtype not specified for Table 3; read-out: IC50 Binned Activity Data
observable: IC50

Field: example entries. Status: answers known.
CCOC1CC(c2ccccc2)OC2(CCN(C(=O)c3cc(-c4ccc(C)cc4)on3)CC2)C1 (stereo not shown) [Compound 53] | 2000 to 5000 nM
CCOC1CC(c2ccccc2)OC2(CCN(C(=O)c3cnc4ccccc4c3)CC2)C1 (stereo not shown) [Compound 95] | > 5000 nM
CCOC1CC(c2ccccc2)OC2(CCN(C(=O)c3ccc(OC(C)C)c(Cl)c3)CC2)C1 (stereo not shown) [Compound 171] | ≤ 2000 nM

Record request: IC50 value, item CCOC1CC(c2ccccc2)OC2(CCN(C(=O)c3ccc(C)cc3F)CC2)C1 (stereo not shown) [Compound 97]
≤ 2000 nM
